Reference source for all entries: patent US20160251404A1

System: recombinant human HGF (hepatocyte growth factor) (human, UniProt P14210 32-728)
Sequence (P14210 32-728 limits assumed): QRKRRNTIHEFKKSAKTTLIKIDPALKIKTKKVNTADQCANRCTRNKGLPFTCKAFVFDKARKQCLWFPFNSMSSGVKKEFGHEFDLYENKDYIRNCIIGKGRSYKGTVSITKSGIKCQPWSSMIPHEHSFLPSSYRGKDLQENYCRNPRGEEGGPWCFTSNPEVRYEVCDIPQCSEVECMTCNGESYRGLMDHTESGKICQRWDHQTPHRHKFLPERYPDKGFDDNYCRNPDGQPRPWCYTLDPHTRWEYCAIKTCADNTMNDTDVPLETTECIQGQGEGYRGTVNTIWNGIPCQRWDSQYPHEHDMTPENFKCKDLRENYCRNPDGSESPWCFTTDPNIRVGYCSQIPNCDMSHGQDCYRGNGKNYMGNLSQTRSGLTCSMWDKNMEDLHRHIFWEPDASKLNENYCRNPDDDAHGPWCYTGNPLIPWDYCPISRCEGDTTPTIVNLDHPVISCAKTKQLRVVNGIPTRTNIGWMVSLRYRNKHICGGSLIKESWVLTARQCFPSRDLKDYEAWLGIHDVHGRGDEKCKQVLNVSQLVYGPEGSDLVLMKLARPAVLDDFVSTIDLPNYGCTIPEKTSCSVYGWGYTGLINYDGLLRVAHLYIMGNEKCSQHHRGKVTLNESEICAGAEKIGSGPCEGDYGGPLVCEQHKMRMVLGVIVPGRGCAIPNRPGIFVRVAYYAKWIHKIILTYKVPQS
Test Details: cell-based or functional assay
IC50 of HGF stimulated c-Met phosphorylation in A549 cells less than 100 pM is YES; IC50 of HGF stimulated c-Met phosphorylation in A549 cells greater than or equal to 100 pM is NO.

| Binder | Classification |
| --- | --- |
| DARPin #33 (designed binder) MRGSHHHHHHGSDLGKKLLEAARAGQDDEVRILMANGADVNAHDYSGFTPLHLAAYYGHLEIVEVLLKHGADVNAFDDWGHTPLHLAARYGHLEIVEVLLKYGADVNAEDTEGYTPLHLAAMDGHLEIVEVLLKNGADVNAQDKFGKTAFDISIDNGNEDLAEILQKLN | NO |
| DARPin #37 (designed binder) MRGSHHHHHHGSDLGKKLLEAARAGQDDEVRILMANGADVNATDLTGFTPLHLAAYYGHLEIVEVLLKYGADVNADDRYGLTPLHLAANTGHLEIVEVLLKNGADVNASDSVGTTLLHLAAYIGHPEIVEVLLKYGADVNAQDKFGKTAFDISIDNGNEDLAEILQKLN | YES |
| DARPin #56 (designed binder) MRGSHHHHHHGSDLGKKLLEAARAGQDDEVRILMANGADVNANDFLGLTPLHLAASTGHLEIVEVLLKYGADVNAIDAYGHTPLHLAANNGHLEIVEVLLKYGADVNAIDHFGYTPLHLAAMFGHLEIVEVLLKNGADVNAQDKFGKTAFDISIDNGNEDLAEILQKLN | NO |
| DARPin #61 (designed binder) MRGSHHHHHHGSDLGKKLLEAARAGQDDEVRILMANGADVNAEDYLGHTPLHLAASTGHLEIVEVLLKYGADVNAKDRNGLTPLYLAANNGHLEIVEDLLKYGADVNADDDNGTTPLHLAAIFGHLEIVEVLLKYGADVNAQDKFGKTAFDISIDNGNEDLAEILQKLN | NO |
| DARPin #58 (designed binder) MRGSHHHHHHGSDLGKKLLEAARAGQDDEVRILMANGADVNAHDYVGLTPLHLAASIGHLEIVEVLLKYGADVNASDYNGFTPLYLAANNGHLEIVEVLLKNGADVNATDSFGYTPLHLAAHYGHLEIVEVLLKNGADVNAQDKFGKTAFDISIDNGNEDLAEILQKLN | NO |
